Data provenance is patent US20240197694A1.

A short record of Kd observed with DCAF1 (1058-1396) (Homo sapiens, UniProt Q9Y4B6) follows.
Sequence (Q9Y4B6 1058-1396): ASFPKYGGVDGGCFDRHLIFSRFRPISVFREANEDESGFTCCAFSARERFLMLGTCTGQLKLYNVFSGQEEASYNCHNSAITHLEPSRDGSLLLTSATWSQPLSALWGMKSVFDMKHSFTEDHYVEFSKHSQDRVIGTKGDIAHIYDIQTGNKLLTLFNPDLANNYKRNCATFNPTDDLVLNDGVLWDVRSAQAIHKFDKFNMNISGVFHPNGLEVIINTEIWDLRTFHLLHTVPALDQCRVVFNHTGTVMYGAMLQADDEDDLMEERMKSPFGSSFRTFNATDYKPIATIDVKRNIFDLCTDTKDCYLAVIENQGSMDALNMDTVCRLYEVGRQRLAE

Some solved entries appear below for comparison.
{"compound": "CNC(=O)NC(=O)CCN1CCc2[nH]c3ccc(Cl)cc3c2C1", "Kd": "70 to 100 µM"}
{"compound": "COc1cccc2c3c([nH]c12)CCN(C)C3", "Kd": "> 100 µM"}
{"compound": "Cc1ccc(S(=O)(=O)c2nc(N3c4ccc(C)cc4C4CN(C)CCC43)sc2Cl)cc1 (centres unmarked)", "Kd": "> 100 µM"}
{"compound": "Cc1ccc2[nH]c3c(c2c1)CN(CCc1cnn[nH]1)CC3", "Kd": "40 to 70 µM"}
{"compound": "Cc1ccc2[nH]c3c(c2c1)CN(CC(O)COc1ccc(C(=O)O)cc1)CC3 (centres unmarked)", "Kd": "≤ 40 µM"}
{"compound": "Cc1ccc2c(c1)C1CN(C)CCC1N2C(=O)c1cc(F)ccc1Br (centres unmarked)", "Kd": "≤ 40 µM"}

Provide reported Kd for each item, in the same order as listed.
1. Cc1ccc2c(c1)C1CN(C)CCC1N2C(=O)c1cc(-n2cccc2)ccn1 (centres unmarked)
2. Cc1ccc2c(c1)C1CN(C)CCC1N2S(=O)(=O)c1c([N+](=O)[O-])ccc(C)c1C (centres unmarked)
3. COc1ccc(/C=C/C(=O)N2c3ccc(C)cc3C3CN(C)CCC32)cc1 (centres unmarked)
4. OCC1(CNCc2cnc[nH]2)CC1
5. CN1Cc2ccccc2CC1CNc1nccc(-c2ccncc2)n1 (centres unmarked)
6. CN1Cc2ccccc2CC1CNC(=O)c1cncc(O)n1 (centres unmarked)

> 100 µM
> 100 µM
> 100 µM
≤ 40 µM
40 to 70 µM
> 100 µM

Provide reported Kd for each item, in the same order as listed.
1. Cc1ccc(CNCc2cnc[nH]2)o1
2. Cc1ccc2c(c1)C1CN(C)CCC1N2C(=O)/C=C/c1ccc(F)cc1 (centres unmarked)
3. Cc1ccc2c(c1)C1CN(C)CCC1N2C(=O)/C=C/c1ccc2c(c1)OCO2 (centres unmarked)
4. Cc1ccc2c(c1)C1CN(C)CCC1N2C(=O)/C=C/c1ccc(S(=O)(=O)N2CCOCC2)cc1 (centres unmarked)
5. COc1cc(C)ccc1C(=O)N1c2ccc(C)cc2C2CN(C)CCC21 (centres unmarked)
6. Cc1cccc2c1[C@H]1CN(C)CC[C@H]1N2 (racemic)
7. Cc1ccc2c(c1)[C@H]1CN(C)CC[C@H]1N2 (racemic)

1: > 100 µM; 2: 40 to 70 µM; 3: > 100 µM; 4: 40 to 70 µM; 5: > 100 µM; 6: > 100 µM; 7: > 100 µM

Item Cc1ccc2c(c1)[C@@H]1CN(C)CC[C@H]1N2C (racemic) has what recorded Kd?
> 100 µM
